# subject.of.test: Pdr3 (UniProt P33200)
# Sequence: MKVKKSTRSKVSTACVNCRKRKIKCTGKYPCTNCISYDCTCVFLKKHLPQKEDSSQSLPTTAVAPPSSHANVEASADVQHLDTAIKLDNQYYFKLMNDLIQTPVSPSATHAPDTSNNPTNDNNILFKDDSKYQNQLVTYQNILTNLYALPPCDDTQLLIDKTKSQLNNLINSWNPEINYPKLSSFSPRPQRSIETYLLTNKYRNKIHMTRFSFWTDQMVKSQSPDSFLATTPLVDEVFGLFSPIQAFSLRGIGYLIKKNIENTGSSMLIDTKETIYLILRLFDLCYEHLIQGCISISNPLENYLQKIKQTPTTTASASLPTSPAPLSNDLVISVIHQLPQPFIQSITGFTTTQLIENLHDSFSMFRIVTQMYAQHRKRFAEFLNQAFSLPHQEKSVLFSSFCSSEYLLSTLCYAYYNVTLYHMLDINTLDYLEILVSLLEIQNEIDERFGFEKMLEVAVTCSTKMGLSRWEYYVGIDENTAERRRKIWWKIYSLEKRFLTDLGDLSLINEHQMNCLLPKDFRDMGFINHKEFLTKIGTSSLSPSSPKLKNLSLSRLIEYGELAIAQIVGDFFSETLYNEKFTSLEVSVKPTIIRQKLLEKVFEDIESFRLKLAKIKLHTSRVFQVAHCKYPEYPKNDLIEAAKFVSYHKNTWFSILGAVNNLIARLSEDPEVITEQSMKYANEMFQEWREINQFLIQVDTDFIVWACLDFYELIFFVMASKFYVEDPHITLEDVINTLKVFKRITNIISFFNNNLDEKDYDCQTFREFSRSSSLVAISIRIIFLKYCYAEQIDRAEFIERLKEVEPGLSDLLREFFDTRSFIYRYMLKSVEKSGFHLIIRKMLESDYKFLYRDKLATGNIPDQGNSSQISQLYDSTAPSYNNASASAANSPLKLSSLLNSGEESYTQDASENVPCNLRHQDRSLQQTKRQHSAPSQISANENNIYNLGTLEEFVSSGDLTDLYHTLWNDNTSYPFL
# assay.procedure: PBM E-score (8-mer binding enrichment) (E-score (-0.5 to 0.5)); higher = stronger / more preferred TF binding
# assay.context: protein concentration: 200 nM; construct: GST-full length
In all, about 33,000 sequences were measured (“E-score (-0.5 to 0.5)”: median about -0.035, highest 2% from about 0.35 on). This excerpt belongs to a sample that is enriched for the highest values.
Listing of entries alongside the reported PBM E-score.
measurement.kind: PBM E-score

[[record]]
construct_sequence = "GACCTACC"
experimental_value = 0.0277

[[record]]
construct_sequence = "AACGAGAA"
experimental_value = -0.0948

[[record]]
construct_sequence = "CCGACGGC"
experimental_value = 0.237

[[record]]
construct_sequence = "AAGATTCG"
experimental_value = 0.108

[[record]]
construct_sequence = "CCGGAAGC"
experimental_value = 0.444

[[record]]
construct_sequence = "ATTCCGTG"
experimental_value = 0.467

[[record]]
construct_sequence = "AGGGAAGA"
experimental_value = -0.238

[[record]]
construct_sequence = "CTGGAAGC"
experimental_value = -0.322

[[record]]
construct_sequence = "CCGACGAA"
experimental_value = 0.193

[[record]]
construct_sequence = "AGGGAACA"
experimental_value = -0.0421

[[record]]
construct_sequence = "CGGGGTTA"
experimental_value = 0.304

[[record]]
construct_sequence = "CCCACTCA"
experimental_value = -0.108

[[record]]
construct_sequence = "GGGGAACA"
experimental_value = -0.00834

[[record]]
construct_sequence = "CCCGCTCG"
experimental_value = 0.133

[[record]]
construct_sequence = "GCGGAAGC"
experimental_value = 0.347

[[record]]
construct_sequence = "CAGGAAGG"
experimental_value = -0.317

[[record]]
construct_sequence = "CCGGAAGA"
experimental_value = 0.403

[[record]]
construct_sequence = "CCGGAAGG"
experimental_value = 0.421

[[record]]
construct_sequence = "ACCAAGGT"
experimental_value = -0.0204

[[record]]
construct_sequence = "CCCCAACA"
experimental_value = -0.274

[[record]]
construct_sequence = "CACTAGCG"
experimental_value = -0.0368

[[record]]
construct_sequence = "ACGGTGCC"
experimental_value = 0.0198

[[record]]
construct_sequence = "ATGGAAGG"
experimental_value = -0.197

[[record]]
construct_sequence = "CAGATAGC"
experimental_value = -0.0206

[[record]]
construct_sequence = "TCTGTGAA"
experimental_value = -0.0705

[[record]]
construct_sequence = "GACAAGGA"
experimental_value = -0.0759

[[record]]
construct_sequence = "CGTCCGTC"
experimental_value = -0.0265

[[record]]
construct_sequence = "TCTCGGAA"
experimental_value = 0.444

[[record]]
construct_sequence = "GCAGCCAC"
experimental_value = 0.0849

[[record]]
construct_sequence = "CGGACGGA"
experimental_value = 0.367

[[record]]
construct_sequence = "GACGCGCA"
experimental_value = 0.0698

[[record]]
construct_sequence = "CGGGAAGC"
experimental_value = 0.282

[[record]]
construct_sequence = "CTATCCAC"
experimental_value = 0.0063

[[record]]
construct_sequence = "GCCCTAAA"
experimental_value = -0.219

[[record]]
construct_sequence = "GGGACGGA"
experimental_value = 0.33

[[record]]
construct_sequence = "CAAAAACC"
experimental_value = 0.0333

[[record]]
construct_sequence = "GCGACGGA"
experimental_value = 0.374

[[record]]
construct_sequence = "GGTCCGAA"
experimental_value = 0.319

[[record]]
construct_sequence = "TAGGAAGA"
experimental_value = -0.204

[[record]]
construct_sequence = "GCGCACGA"
experimental_value = 0.0416

[[record]]
construct_sequence = "TCAGAAGA"
experimental_value = -0.178

[[record]]
construct_sequence = "TCGGAAGA"
experimental_value = 0.359

[[record]]
construct_sequence = "AATCCGAA"
experimental_value = 0.0894

[[record]]
construct_sequence = "ACGACGGA"
experimental_value = 0.328

[[record]]
construct_sequence = "AACTGATA"
experimental_value = 0.0335

[[record]]
construct_sequence = "GTTCCGAA"
experimental_value = 0.471


These entries and their values trace back to the supplement of paper PMC3334620.
